Please provide measured DC50 for the entries that follow.
# test_system: ER (Homo sapiens, UniProt P03372)
# Construct: endogenous in cells; probably T47D or MCF-7
# Sequence (P03372 1-595): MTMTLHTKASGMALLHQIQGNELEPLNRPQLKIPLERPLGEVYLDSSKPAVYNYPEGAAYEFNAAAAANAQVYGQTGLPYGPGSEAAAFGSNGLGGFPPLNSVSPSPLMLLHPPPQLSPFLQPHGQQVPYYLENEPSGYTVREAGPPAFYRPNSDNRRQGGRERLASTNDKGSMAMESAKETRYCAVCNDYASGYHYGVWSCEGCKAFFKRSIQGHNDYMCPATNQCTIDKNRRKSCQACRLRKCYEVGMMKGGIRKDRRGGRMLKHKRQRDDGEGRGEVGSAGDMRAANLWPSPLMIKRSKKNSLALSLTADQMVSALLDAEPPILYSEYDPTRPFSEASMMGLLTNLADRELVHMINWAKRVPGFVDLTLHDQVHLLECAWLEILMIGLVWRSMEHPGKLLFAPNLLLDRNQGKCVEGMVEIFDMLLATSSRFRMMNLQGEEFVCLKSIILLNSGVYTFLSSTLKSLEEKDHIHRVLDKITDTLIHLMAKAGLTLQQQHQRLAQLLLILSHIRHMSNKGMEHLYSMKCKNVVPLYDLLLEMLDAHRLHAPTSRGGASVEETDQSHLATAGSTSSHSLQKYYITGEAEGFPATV
# protocol: In-cell western blot analysis, relative ER percentage (compounds B1-B126)
# Type: cell-based
# conditions_used: ER degradation, 16 hours, read-out: ICW DC50

For record COc1cc(N2CCC3(CCN(C(=O)CN4Cc5cc6c(cc5C4)C(=O)N(C4CCC(=O)NC4=O)C6=O)CC3)CC2)ccc1[C@@H]1c2ccc3[nH]ncc3c2C[C@@H](C)N1CC(F)F (stereo partly drawn) [Compound B68] the listed DC50 is < 10 nM

For record C[C@@H]1Cc2c(ccc3[nH]ncc23)[C@@H](c2ccc(N3CC4(CC(CN5CCN6c7ccc8c(c7OC[C@H]6C5)CN(C5CCC(=O)NC5=O)C8=O)CO4)C3)cn2)N1CC(F)(F)F (stereo partly drawn) [Compound B96] the listed DC50 is < 10 nM

For record C[C@@H]1Cc2c(ccc3[nH]ncc23)[C@@H](c2ccc(N3CCC(N4CC(N5CCN6c7cc8c(cc7OC[C@@H]6C5)C(=O)N(C5CCC(=O)NC5=O)C8)C4)CC3)cn2)N1CC(F)(F)F (stereo partly drawn) [Compound B52] the listed DC50 is < 10 nM

====

# test_system: ER (Homo sapiens)
# Construct: endogenous in cells; probably T47D or MCF-7
# Sequence (P03372 1-595): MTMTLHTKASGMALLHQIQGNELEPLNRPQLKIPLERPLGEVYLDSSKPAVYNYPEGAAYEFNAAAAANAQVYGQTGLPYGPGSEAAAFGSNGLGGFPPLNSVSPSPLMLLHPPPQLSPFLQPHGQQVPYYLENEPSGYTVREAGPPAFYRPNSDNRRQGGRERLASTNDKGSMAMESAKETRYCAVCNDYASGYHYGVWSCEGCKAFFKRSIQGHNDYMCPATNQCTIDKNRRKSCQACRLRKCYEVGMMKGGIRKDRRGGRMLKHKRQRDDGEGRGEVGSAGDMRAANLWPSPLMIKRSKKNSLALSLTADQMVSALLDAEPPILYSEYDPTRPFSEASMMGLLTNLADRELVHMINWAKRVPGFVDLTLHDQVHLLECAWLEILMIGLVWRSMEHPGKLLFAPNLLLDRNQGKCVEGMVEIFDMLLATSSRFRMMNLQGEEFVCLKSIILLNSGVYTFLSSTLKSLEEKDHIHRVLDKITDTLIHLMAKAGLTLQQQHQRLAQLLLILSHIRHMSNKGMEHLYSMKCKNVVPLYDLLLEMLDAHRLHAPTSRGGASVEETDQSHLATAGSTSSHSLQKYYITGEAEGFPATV
# protocol: In-cell western blot analysis, relative ER percentage (compounds B1-B126)
# Assay type: cell-based
# conditions_used: ER degradation, 16 hours, read-out: ICW DC50
Please provide measured DC50 for the entries that follow.

For record C[C@@H]1Cc2c(ccc3[nH]ncc23)[C@@H](c2c(F)cc(NC3CC4(C3)CN(CC(=O)N3CCN5c6cc7c(cc6OC[C@@H]5C3)C(=O)N(C3CCC(=O)NC3=O)C7)C4)cc2F)N1CC(F)F (stereo partly drawn) [Compound B42] the listed DC50 is < 10 nM

For record C[C@@H]1Cc2c(ccc3[nH]ncc23)[C@@H](c2c(F)cc(N3CC4(CCN(CC(=O)N5CCN6c7cc8c(cc7OC[C@@H]6C5)C(=O)N(C5CCC(=O)NC5=O)C8)CC4)C3)cc2F)N1CC(F)F (stereo partly drawn) [Compound B33] the listed DC50 is < 10 nM

For record C[C@H]1Cc2c(ccc3[nH]ncc23)[C@H](c2ccc(N3CCC4(CC3)CC(CN3CCN(c5ccc(NC6CCC(=O)NC6=O)cc5F)CC3)C4)cn2)N1CC(F)(F)F (stereo partly drawn) [Compound B120] the listed DC50 is > 100 nM
